tested on: 501Mel-GP cells (Dabrafenib-resistant); assay: Kinase inhibitor library screening, PrestoBlue cell viability, 1 or 10 μM, 72 h; details: 501Mel GP; 10μΜ; 72 h; in %
Please assign 0.0 whenever cell viability, 501Mel GP, 10μΜ is at or above 30, and 1.0 whenever it is below.

[[record]]
compound = "Nc1ncnc2c1c(-c1cccc(OCc3ccccc3)c1)cn2C1CC(CN2CCCC2)C1 (centres unmarked)"
classification = 1.0

[[record]]
compound = "CCOc1cc2ncc(C#N)c(Nc3ccc(OCc4ccccn4)c(Cl)c3)c2cc1NC(=O)/C=C/CN(C)C"
classification = 0.0

[[record]]
compound = "CC(=O)Nc1cccc(-n2c(=O)n(C3CC3)c(=O)c3c(Nc4ccc(I)cc4F)n(C)c(=O)c(C)c32)c1"
classification = 0.0

[[record]]
compound = "COc1cc2ncnc(Nc3cccc(Br)c3)c2cc1OC.Cl [PD153035 HCl]"
classification = 1.0

[[record]]
compound = "Cc1cnc(Nc2ccc(N3CCN(C)CC3)cc2)nc1Nc1cccc(S(=O)(=O)NC(C)(C)C)c1"
classification = 1.0

